Attribute: inhibition
molecular target: UniProt P25103; assay: Displacement of [125I]-BH-SP from NK1R (unknown origin) transfected in CHO cells at 10 uM by gamma counting analysis; assay type: cell-based
Sequence (P25103 whole entry): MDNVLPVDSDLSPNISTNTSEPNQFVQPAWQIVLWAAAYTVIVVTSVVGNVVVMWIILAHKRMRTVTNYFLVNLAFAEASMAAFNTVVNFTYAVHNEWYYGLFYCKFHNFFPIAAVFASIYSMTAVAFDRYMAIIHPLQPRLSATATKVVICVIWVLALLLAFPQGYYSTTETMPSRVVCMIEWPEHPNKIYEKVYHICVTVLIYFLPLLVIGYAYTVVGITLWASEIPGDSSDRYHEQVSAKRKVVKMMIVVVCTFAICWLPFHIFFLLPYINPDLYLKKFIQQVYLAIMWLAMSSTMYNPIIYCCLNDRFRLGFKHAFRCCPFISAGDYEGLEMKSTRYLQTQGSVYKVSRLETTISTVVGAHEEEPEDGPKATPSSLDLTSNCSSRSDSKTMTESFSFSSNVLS
Residues, ends and D or L forms follow the SMILES beside them.
Write down the numeric answer in % and omit the unit.

{"Compound": "CC[C@H](C)[C@H](NC(=O)[C@H](Cc1ccccc1)NC(=O)[C@H](CC(=O)O)NC(=O)[C@H](CC(=O)O)NC(=O)[C@H](CCCCN)NC(=O)[C@H](CO)NC(=O)[C@@H]1CCCN1C(=O)[C@@H]1CCC(=O)N1)C(=O)NCC(=O)N[C@@H](CC(C)C)C(=O)N[C@@H](CCSC)C(N)=O (HELM PEPTIDE1{[Glp].P.S.K.D.D.F.I.G.L.M.[am]}$$$$V2.0)", "System name": "UniProt P25103", "inhibition (%)": 91}

Annotate the compound CSCC[C@H](NC(=O)[C@H](CC(C)C)NC(=O)CNC(=O)[C@H](Cc1ccccc1)N(C)C(=O)[C@H](Cc1ccccc1)NC(=O)[C@H](CCCNC(=N)N)NC(=O)[C@H](CC(=O)O)NC(=O)[C@H](Cc1cnc[nH]1)NC(=O)[C@H](CCSC)NC(=O)[C@@H](N)CC(=O)O)C(N)=O (HELM PEPTIDE1{D.M.H.D.R.F.[meF].G.L.M.[am]}$$$$V2.0) with its measured inhibition.
60
